# assayedTarget: human HIF-PHD2 (Homo sapiens, UniProt Q9GZT9)
# Construct: FLAG-tagged full length PHD2 expressed in and purified from baculovirus-infected Sf9 cells; FLAG; made in house; host or cells: baculovirus-infected Sf9 cells
# Sequence (Q9GZT9 whole entry): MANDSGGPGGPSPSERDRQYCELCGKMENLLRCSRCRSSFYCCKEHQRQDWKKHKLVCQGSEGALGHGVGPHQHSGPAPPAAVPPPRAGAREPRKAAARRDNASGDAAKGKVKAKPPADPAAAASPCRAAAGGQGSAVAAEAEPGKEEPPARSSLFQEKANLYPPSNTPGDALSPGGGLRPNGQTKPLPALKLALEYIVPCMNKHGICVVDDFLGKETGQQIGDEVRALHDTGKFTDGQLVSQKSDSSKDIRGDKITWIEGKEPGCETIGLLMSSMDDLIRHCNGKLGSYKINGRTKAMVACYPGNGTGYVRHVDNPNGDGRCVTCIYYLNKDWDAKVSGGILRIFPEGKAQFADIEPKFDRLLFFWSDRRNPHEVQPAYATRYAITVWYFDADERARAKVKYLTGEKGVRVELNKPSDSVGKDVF
# experimentNotes: HIF-PHD2 inhibition, time resolved fluorescence assay of HIF-1α peptide hydroxylation
# Type: biochemical
# measurementSetup: FLAG-tagged full length PHD2; 0.2 μM 2-oxoglutarate, 0.5 μM HIF-1α peptide
Threshold 5 nM: IC50 strictly smaller gives YES, otherwise NO.

INSERT INTO measurements (compound, assayedtarget, labelvalue) VALUES
  ('O=C(O)CNC(=O)c1c(O)c2c(n(Cc3ccc(F)c(F)c3)c1=O)COC2 [Example 31]', 'human HIF-PHD2 (Homo sapiens, UniProt Q9GZT9)', 'YES'),
  ('COc1ccc(Cn2c3c(c(O)c(C(=O)NCC(=O)O)c2=O)COC3)cc1 [Example 28]', 'human HIF-PHD2 (Homo sapiens, UniProt Q9GZT9)', 'YES'),
  ('CCn1c2c(c(O)c(C(=O)NCC(=O)O)c1=O)COC2 [Example 54]', 'human HIF-PHD2 (Homo sapiens, UniProt Q9GZT9)', 'NO'),
  ('CNC(=O)c1ccc(Cn2c3c(c(O)c(C(=O)NCC(=O)O)c2=O)COC3)cc1 [Example 23]', 'human HIF-PHD2 (Homo sapiens, UniProt Q9GZT9)', 'NO'),
  ('O=C(O)CNC(=O)c1c(O)c2c(n(Cc3ccc4[nH]cnc4c3)c1=O)COC2 [Example 65]', 'human HIF-PHD2 (Homo sapiens, UniProt Q9GZT9)', 'NO'),
  ('Cc1ncsc1Cn1c2c(c(O)c(C(=O)NCC(=O)O)c1=O)COC2 [Example 8]', 'human HIF-PHD2 (Homo sapiens, UniProt Q9GZT9)', 'NO'),
  ('CS(=O)(=O)c1ccc(Cn2c3c(c(O)c(C(=O)NCC(=O)O)c2=O)COC3)cc1 [Example 7]', 'human HIF-PHD2 (Homo sapiens, UniProt Q9GZT9)', 'NO'),
  ('O=C(O)CNC(=O)c1c(O)c2c(n(Cc3ccc4ccccc4c3)c1=O)COC2 [Example 47]', 'human HIF-PHD2 (Homo sapiens, UniProt Q9GZT9)', 'NO');

###

# experimentNotes: Tissue PK profile in rat (liver and plasma drug level)
# Format: in vivo
# measurementSetup: plasma, po, 10 mg/kg, 4 hours after PO dosing at 10 mpk, vehicle 0.5% MC, read-out: plasma concentration
Here, each record is paired with measured concentration at 4 h data.
outcomeMeasure: concentration at 4 h (µM)

INSERT INTO measurements (compoundsmiles, scaleunit, numericresult) VALUES
  ('N#Cc1ccc(-c2ccc(Cn3c4c(c(O)c(C(=O)NCC(=O)O)c3=O)COC4)cc2)cc1', 'µM', 0.0137),
  ('N#Cc1ccc(Cn2c3c(c(O)c(C(=O)NCC(=O)O)c2=O)COC3)cc1', 'µM', 0.123),
  ('NC(=O)c1ccc(-c2ccc(Cn3c4c(c(O)c(C(=O)NCC(=O)O)c3=O)COC4)cc2)cc1', 'µM', 0.00528),
  ('Cc1cc(Cl)ccc1Cn1c2c(c(O)c(C(=O)NCC(=O)O)c1=O)COC2', 'µM', 1.52);

###

# assayedTarget: human HIF-PHD2 (Homo sapiens, UniProt Q9GZT9)
Here, each record is paired with measured IC50 data.
outcomeMeasure: IC50 (nM)

INSERT INTO measurements (molecule, scaleunit, numericresult) VALUES
  ('O=C(O)CNC(=O)c1c(O)c2c(n(Cc3cccc(C(=O)O)c3)c1=O)COC2', 'nM', 8),
  ('O=C(O)CNC(=O)c1c(O)c2c(n(Cc3ncco3)c1=O)COC2', 'nM', 9.7),
  ('O=C(O)CNC(=O)c1c(O)c2c(n(Cc3cccc(F)c3)c1=O)COC2', 'nM', 8.4),
  ('O=C(N[C@H](CO)C(=O)O)c1c(O)c2c(n(Cc3ccc(C(F)(F)F)cc3)c1=O)COC2', 'nM', 59.7),
  ('COC(=O)c1cccc(Cn2c3c(c(O)c(C(=O)NCC(=O)O)c2=O)COC3)c1', 'nM', 8.1),
  ('O=C(O)CNC(=O)c1c(O)c2c(n(Cc3cnco3)c1=O)COC2', 'nM', 7.4),
  ('NC(=O)c1ccc(-c2ccc(Cn3c4c(c(O)c(C(=O)NCC(=O)O)c3=O)COC4)cc2)cc1', 'nM', 1.1),
  ('C=Cc1ccc(Cn2c3c(c(O)c(C(=O)NCC(=O)O)c2=O)COC3)cn1', 'nM', 3.7),
  ('O=C(O)CNC(=O)c1c(O)c2c(n(Cc3ccc(Cl)cc3F)c1=O)COC2', 'nM', 2.7),
  ('O=C(O)CNC(=O)c1c(O)c2c(n(Cc3ccc(C(=O)O)cc3)c1=O)COC2', 'nM', 7.2),
  ('Cc1cc(C(=O)O)ccc1-c1ccc(Cn2c3c(c(O)c(C(=O)NCC(=O)O)c2=O)COC3)cc1', 'nM', 1.2),
  ('N#Cc1ccc(Cn2c3c(c(O)c(C(=O)NCC(=O)O)c2=O)COC3)cc1F', 'nM', 7.1),
  ('CC(C)c1ccc(Cn2c3c(c(O)c(C(=O)NCC(=O)O)c2=O)COC3)cc1', 'nM', 2.9),
  ('CC(c1ccc(C(F)(F)F)cc1)n1c2c(c(O)c(C(=O)NCC(=O)O)c1=O)COC2 (stereo not shown)', 'nM', 19.6),
  ('N#Cc1ccc(-c2ccc(Cn3c4c(c(O)c(C(=O)NCC(=O)O)c3=O)COC4)cc2)cc1', 'nM', 1.5),
  ('N#Cc1ccc(Cn2c3c(c(O)c(C(=O)NCC(=O)O)c2=O)COC3)cc1', 'nM', 3.1);

###

# experimentNotes: Tissue PK profile in rat (liver and plasma drug level)
# Assay type: in vivo
# measurementSetup: liver/plasma, 10 mg/kg, 4 hours after PO dosing at 10 mpk, vehicle 0.5% MC, read-out: liver/plasma ratio
Label true when Kp at 4 h is at or above 40; otherwise label false.

INSERT INTO assay_data (compoundsmiles, labelvalue) VALUES
  ('NC(=O)c1ccc(-c2ccc(Cn3c4c(c(O)c(C(=O)NCC(=O)O)c3=O)COC4)cc2)cc1', 'false'),
  ('O=C(O)CNC(=O)c1c(O)c2c(n(Cc3ccc(F)cc3F)c1=O)COC2', 'true'),
  ('O=C(O)CNC(=O)c1c(O)c2c(n(Cc3nc4ccccc4o3)c1=O)COC2', 'true'),
  ('CC(C)(O)c1ccc(Cn2c3c(c(O)c(C(=O)NCC(=O)O)c2=O)COC3)cc1', 'true'),
  ('O=C(O)CNC(=O)c1c(O)c2c(n(Cc3ccn(-c4ccccc4)n3)c1=O)COC2', 'true'),
  ('O=C(O)CNC(=O)c1c(O)c2c(n(Cc3cnc(C(F)(F)F)nc3)c1=O)COC2', 'true'),
  ('O=C(O)CNC(=O)c1c(O)c2c(n(Cc3ncc(C(F)(F)F)cn3)c1=O)COC2', 'true'),
  ('N#Cc1ccc(-c2ccc(Cn3c4c(c(O)c(C(=O)NCC(=O)O)c3=O)COC4)cc2)cc1', 'false');
